target: human GPR119 (Homo sapiens, UniProt Q8TDV5)
Construct: expressed in transfected cells; host or cells: HEK293 (transient transfection, Lipofectamine 2000)
Sequence (Q8TDV5 whole entry): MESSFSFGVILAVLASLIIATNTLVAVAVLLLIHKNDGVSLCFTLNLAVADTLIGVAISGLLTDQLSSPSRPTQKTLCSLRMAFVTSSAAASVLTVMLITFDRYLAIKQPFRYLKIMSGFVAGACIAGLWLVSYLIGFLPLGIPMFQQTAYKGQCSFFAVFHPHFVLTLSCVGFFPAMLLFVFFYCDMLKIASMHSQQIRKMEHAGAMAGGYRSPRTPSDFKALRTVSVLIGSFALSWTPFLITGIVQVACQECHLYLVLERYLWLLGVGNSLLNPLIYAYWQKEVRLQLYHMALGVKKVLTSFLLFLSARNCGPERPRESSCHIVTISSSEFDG
measurementNotes: In vitro cyclic AMP assay (Cisbio HTRF) in HEK293 cells transfected with human GPR119
Type: cell-based
setupConditions: 1 h, % Induction @ 10 μM, cAMP, Table II
propertyName: activation at 10 µM (%)

INSERT INTO results (inputsmiles, propertyname, valueunit, valuereported) VALUES
  ('CC(C)(C)OC(=O)N1CC=C(c2ccc3sc(-c4ccc(S(C)(=O)=O)cc4F)nc3c2)CC1', 'activation at 10 µM', '%', 18.9),
  ('CCOC(=O)N1CCC(c2ccc3oc(-c4ccc(S(C)(=O)=O)cc4F)nc3c2)CC1', 'activation at 10 µM', '%', 71.8),
  ('CC(C)OC(=O)N1CCC(c2ccc3nc(-c4ccc(S(C)(=O)=O)cc4F)sc3c2)CC1', 'activation at 10 µM', '%', 74.9);

a = CC(C)OC(=O)N1CCC(c2ccc3oc(-c4ccc(S(C)(=O)=O)cc4F)nc3c2)CC1
b = CS(=O)(=O)c1ccc(-c2nc3cc(C4CCN(C(=O)OCc5ccccc5)CC4)ccc3o2)c(F)c1
Data request: // returns a or b , whichever has the lower activation at 10 µM Pick one and reply with its label.
Data returned: b
(b: 14.7%, a: 75%)
